# target entity: RORγt ligand-binding domain (RORγt-LBD) (Homo sapiens, UniProt P51449)
# Construct: 20 nM recombinantly expressed RORγ-LBD fused to GST
# measurement notes: Time-resolved FRET (TR-FRET) RORγt coactivator assay
# test settings: GST-RORγ-LBD, biotinylated RIP140 peptide, coactivator displacement
pIC50: −log10 of the molar value.
Listed here are molecules together with their documented pIC50.

Here's what some known entries look like.
>  <molecule>
Cc1ccc(C(NC(=O)Cc2ccc3[nH]cc(CCC(=O)O)c3c2)c2ccc(C)s2)c(C)c1 (stereo not shown) [compound 101]

>  <quantity measured>
pIC50

>  <value>
> 6.00

$$$$
>  <molecule>
CN(C)Cc1ccccc1C(NC(=O)Cc1ccc2[nH]cc(CCC(=O)OC(C)(C)C)c2c1)c1ccccc1 (stereo not shown) [compound 121]

>  <quantity measured>
pIC50

>  <value>
5.00 to 6.00

$$$$
>  <molecule>
Cc1ccc(C(NC(=O)Cc2ccc3[nH]cc(CCC(=O)O)c3c2)c2ccccc2)c(Cl)c1 (stereo not shown) [Cpd. 7]

>  <quantity measured>
pIC50

>  <value>
> 6.00

$$$$
>  <molecule>
Cc1ccc(C(NC(=O)Cc2ccc3[nH]cc(CCC(=O)O)c3c2)c2ccccc2)c(N2CCOCC2)c1 (stereo not shown) [compound 81]

>  <quantity measured>
pIC50

>  <value>
> 6.00

$$$$
>  <molecule>
O=C(O)CCCc1c[nH]c2ccc(CC(=O)NC(c3ccccc3)c3ccccc3N3CCCCC3)cc12 (stereo not shown) [Cpd. 212]

>  <quantity measured>
pIC50

>  <value>
> 6.00

$$$$

Exercise: Given the entry Cc1ccc(C(C(=O)NCc2ccc3[nH]cc(CCC(=O)OC(C)(C)C)c3c2)c2ccccc2)c(N2CCCCC2)c1 (stereo not shown) [Cpd. 208] , report its measured pIC50.
Solution: > 6.00

Exercise: Given the entry Cc1ccc(C(NC(=O)Cc2ccc3[nH]nc(CCC(=O)O)c3c2)c2ccccc2)c(OC(C)C)c1 (stereo not shown) [compound 160] , report its measured pIC50.
Solution: > 6.00

Exercise: Given the entry COC(=O)Cc1c[nH]c2ccc(CC(=O)NC(c3ccccc3)c3ccc(Br)cc3N3CCCC3)cc12 (stereo not shown) [Cpd. 66] , report its measured pIC50.
Solution: > 6.00

Exercise: Given the entry O=C(O)CCc1c[nH]c2ccc(CC(=O)NC(CC3CCOCC3)c3ccccc3N3CCCCC3)cc12 (stereo not shown) [compound 190] , report its measured pIC50.
Solution: > 6.00

Exercise: Given the entry CC(C)NC(=O)CCc1c[nH]c2ccc(CC(=O)NC(c3ccccc3)c3ccccc3N3CCCCC3)cc12 (stereo not shown) [compound 118] , report its measured pIC50.
Solution: > 6.00

* * *

Listed here are compounds together with their documented IC50.
# target entity: human RORγt (Homo sapiens, UniProt P51449)
# Sequence (P51449 1-497 isoform P51449-2): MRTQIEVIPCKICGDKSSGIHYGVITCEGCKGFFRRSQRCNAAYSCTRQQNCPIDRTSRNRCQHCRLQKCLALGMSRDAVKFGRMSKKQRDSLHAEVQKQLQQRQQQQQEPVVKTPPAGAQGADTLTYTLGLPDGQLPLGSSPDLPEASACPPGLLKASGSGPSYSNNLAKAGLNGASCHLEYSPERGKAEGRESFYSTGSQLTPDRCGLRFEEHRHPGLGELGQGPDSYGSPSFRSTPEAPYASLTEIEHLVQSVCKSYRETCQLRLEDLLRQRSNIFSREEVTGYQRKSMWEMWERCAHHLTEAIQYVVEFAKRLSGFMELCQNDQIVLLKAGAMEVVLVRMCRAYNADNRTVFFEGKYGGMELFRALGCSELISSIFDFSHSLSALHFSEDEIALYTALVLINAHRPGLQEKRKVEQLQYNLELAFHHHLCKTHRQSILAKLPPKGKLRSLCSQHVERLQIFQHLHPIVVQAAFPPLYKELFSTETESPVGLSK
# measurement notes: IL-17 secretion from EL4 murine lymphoma overexpressing human RORγt
# Format: cell-based
# Design: expressed in transfected cells; host or cells: EL-4 murine lymphoma
# test settings: IL-17 secretion inhibition, PMA and ionomycin stimulation, 24 h

>  <compound>
CC(C)CC(NC(=O)Cc1ccc2[nH]cc(CCC(=O)O)c2c1)c1cccc2ccccc12 (stereo not drawn) [compound 105]

>  <value>
1 to 10 µM

$$$$
>  <compound>
Cc1cc(Br)ccc1C(NC(=O)Cc1ccc2[nH]cc(CCC(=O)OC(C)(C)C)c2c1)c1ccccc1 (stereo not drawn) [Cpd. 43]

>  <value>
10 to 30 µM

$$$$

Okay, next one:
Exercise: Given the entry CC(C)(C)OC(=O)CCc1c[nH]c2ccc(NC(=O)NC(c3ccccc3)c3ccccc3N3CCCCC3)cc12 (stereo not drawn) [compound 55] , report its measured IC50.
Solution: 1 to 10 µM
